Just for reference, patent US11827664B2 is where these values come from.

Assay: Stability in acidic medium, monitored by HPLC
Type: physicochemical
Settings: 0.1 N aq. HCl/MeOH (2/1 v/v), room temperature, 24 h
REPORTED_ENDPOINT: percentage of test compound remaining (HPLC peak area %)

CC(=O)NCCc1ccc(O[C@@H]2OC(C)(C)[C@H](O)[C@@H](O)[C@H]2O)cc1-c1cccc(F)c1; 88.3
CO[C@@H]1[C@@H](O)[C@@H](O)[C@H](Oc2ccc(C(F)(F)CNC(C)=O)c(-c3cccc(F)c3)c2)O[C@H]1C; 99.3

A: CC(=O)NCCc1ccc(O[C@@H]2O[C@@H](C)[C@@H](O)[C@@H](O)[C@@H]2O)cc1-c1cccc(F)c1
B: CC(=O)NCCc1ccc(O[C@@H]2OC(C)(C)[C@H](OCc3ccccc3)[C@@H](O)[C@H]2O)cc1-c1cccc(F)c1
Pick one: A or B . Which has the bigger percentage of test compound remaining (HPLC peak area %) number? Lab log: write the label of the selected item as the result.
A
(A: 96.5%, B: 61.7%)

----------
Assay: Stability in acidic medium, monitored by HPLC
Type: physicochemical
Conditions: 0.1 N aq. HCl/MeOH (2/1 v/v), room temperature, 4 h
REPORTED_ENDPOINT: percentage of test compound remaining (HPLC peak area %)

CC(=O)NCCc1ccc(O[C@@H]2OC(C)(C)[C@H](O)[C@@H](O)[C@H]2O)cc1-c1cccc(F)c1 [T3]; 98.1
CO[C@@H]1[C@@H](O)[C@@H](O)[C@H](Oc2ccc(CCNC(C)=O)c(-c3cccc(F)c3)c2)O[C@H]1C [T2]; 99.9
CNC(=O)CCc1ccc(O[C@@H]2O[C@@H](C)[C@H](OC)[C@@H](O)[C@H]2O)cc1-c1cccc(F)c1 [T11]; 100.2
CC(=O)NCCc1ccc(O[C@@H]2OC(C)(C)[C@H](OCc3ccccc3)[C@@H](O)[C@H]2O)cc1-c1cccc(F)c1 [T7]; 93.3
CC(=O)NCCc1ccc(O[C@H]2O[C@H](C)[C@@H](O)[C@H](O)[C@@H]2O)cc1-c1cccc(F)c1 [T54]; 100.4
CC(=O)NCCc1ccc(O[C@@H]2O[C@@H](C)[C@H](O)[C@@H](O)[C@H]2O)cc1-c1cccc(F)c1 [T1]; 101.1
CC(=O)NCCc1ccc(O[C@@H]2O[C@@H](CO)[C@H](O)[C@@H](O)[C@H]2O)cc1-c1cccc(F)c1 [T60]; 97.6
CO[C@@H]1[C@@H](O)[C@@H](O)[C@H](Oc2ccc(C(F)(F)CNC(C)=O)c(-c3cccc(F)c3)c2)OC1(C)C [T12]; 97.2
CO[C@@H]1[C@@H](O)[C@@H](O)[C@H](Oc2ccc(CCNC(C)=O)c(-c3cccc(F)c3)c2)OC1(C)C [T0, reference compound]; 96.7
CNC(=O)CCc1ccc(O[C@@H]2OC(C)(C)[C@H](OC)[C@@H](O)[C@H]2O)cc1-c1cccc(F)c1 [T57]; 97.9
CO[C@@H]1[C@@H](O)[C@@H](O)[C@@H](Oc2ccc(CCNC(C)=O)c(-c3cccc(F)c3)c2)OC1(C)C [T20]; 97.7
CC(=O)NCCc1ccc(O[C@@H]2OC(C)(C)[C@H](OC(F)F)[C@@H](O)[C@H]2O)cc1-c1cccc(F)c1 [T6]; 99.1
CO[C@@H]1[C@@H](O)[C@@H](O)[C@H](Oc2ccc(C(F)(F)CNC(C)=O)c(-c3cccc(F)c3)c2)O[C@H]1C [T13]; 99.3
CC(=O)NCCc1ccc(O[C@@H]2O[C@@H](C)[C@@H](O)[C@@H](O)[C@@H]2O)cc1-c1cccc(F)c1 [T15]; 99.9
